target: KRAS (G12D)::SOS1 (Homo sapiens, UniProt P01116, G12D); construct: KRAS (G12D) 1-169, N-terminal 6His-tag, C-terminal avi-tag; 6His-tag (N); Viva Biotech Ltd (SOS1); assay: KRAS::SOS1 AlphaScreen binding assay, KRAS G12D
Sequence (P01116 1-169 isoform P01116-2 G12D): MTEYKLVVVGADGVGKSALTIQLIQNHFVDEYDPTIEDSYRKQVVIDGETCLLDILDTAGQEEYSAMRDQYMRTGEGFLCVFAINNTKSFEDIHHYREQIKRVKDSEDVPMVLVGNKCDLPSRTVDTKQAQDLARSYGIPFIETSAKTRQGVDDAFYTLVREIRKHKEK
Measured metric: pIC50
Just the number, please; pIC50 means minus log10 of the concentration in mol/L.

I am curious: what pIC50 value has been reported for C[C@@H]1NCCCN(c2nccc(-c3onc4c3CCC[C@@]43CCCc4sc(N)c(C#N)c43)n2)[C@H]1C ?
8.30

Field entry: C[C@H]1CNCCCN1c1nccc(-c2noc3c2CSCC32CCCc3sc(N)c(C#N)c32)n1 (some centres unmarked)
7.89

Field entry: C[C@@H](O)CN1CCCN(c2nccc(-c3onc4c3CCC[C@@]43CCCc4sc(N)c(C#N)c43)n2)[C@@H](C)C1
8.52

Field entry: C[C@H](Oc1nccc(-c2onc3c2CCC[C@@]32CCCc3sc(N)c(C#N)c32)n1)[C@@H]1C[C@@H](F)CN1C
8.70

Field entry: C[C@H](Oc1nccc(-c2noc3c2CCC[C@@]32CCCc3sc(N)c(C#N)c32)n1)[C@@]1(C)CCCN1C
8.40
